# Tested on: SF-295
# testMethodNotes: NCI tumour cell line growth inhibition, 48 h
Active and inactive are the calls of the source. Rule as the data show it: active = GI50 up to about 1.1 µM and inactive = higher.

compound: NC1=NN(c2ccccc2)C(=O)C1C(=O)C(=O)Nc1ccc(Cl)cc1 (stereo unspecified)
targetEntity: SF-295
GI50: > 100 µM (inactive)
//
compound: COc1ccc(/C=C2\N=C(N3CCCCC3)NC2=O)cc1
targetEntity: SF-295
GI50: > 100 µM (inactive)
//
compound: CCCCCC(=O)OCC1(CO)C/C(=C\CC(C(C)C)C(C)C)C(=O)O1 (stereo unspecified)
targetEntity: SF-295
GI50: 25.9 µM (inactive)
//
compound: Nc1ccc(-c2nc3ccccc3s2)cc1C(F)(F)F
targetEntity: SF-295
GI50: 17.4 µM (inactive)
//
compound: CCCCON1C[C@@H](O)C(O)[C@@H](O)C1 (stereo partly specified)
targetEntity: SF-295
GI50: > 100 µM (inactive)
//
compound: Clc1sc(Cl)c2c1[C@H](Cl)C[C@@H]2Cl
targetEntity: SF-295
GI50: 35.3 µM (inactive)
//
compound: COc1cccc(C2c3cc4c(cc3OC(N3CCCC3)C2C)OCO4)c1 (stereo unspecified)
targetEntity: SF-295
GI50: 3.04 µM (inactive)
//
compound: O=[N+]([O-])c1ccccc1S(=O)(=O)c1ccccc1[N+](=O)[O-]
targetEntity: SF-295
GI50: 36.9 µM (inactive)
//
compound: CCN1CCCCCCCCCC(=N/O)/C(=N\O)C1
targetEntity: SF-295
GI50: > 100 µM (inactive)
//
compound: Cc1ccc(/C=C2\Cc3cccc(C)c3C2=O)c(C(=O)O)c1
targetEntity: SF-295
GI50: > 100 µM (inactive)
//
compound: CC(=O)NNc1nc(C)c(C(/C=C/c2ccc(NC(C)=O)cc2)=N/NS(=O)(=O)c2ccc(C)cc2)s1
targetEntity: SF-295
GI50: 27.9 µM (inactive)

----------
# System: OVCAR-3
# testMethodNotes: NCI tumour cell line growth inhibition, 48 h
Activity calls are given as the source filed them. No stated cut-off is given here; in the data, active = GI50 up to about 1.1 µM and inactive = higher.
Items are presented alongside their recorded GI50.

molecule: N#CSC#Cc1ccc(C#CSC#N)cc1
targetEntity: OVCAR-3
GI50: 19.3 µM (inactive)
--
molecule: O=C(CCC(=O)N/N=C/c1ccccc1O)N/N=C/c1ccccc1O
targetEntity: OVCAR-3
GI50: 42.1 µM (inactive)
--
molecule: CC1=CCC2(C#N)CCC1C2O (centres undefined)
targetEntity: OVCAR-3
GI50: > 100 µM (inactive)
--
molecule: CN(C)CCNC(=O)c1cccc2c1nc(-c1ccncc1)c1ccccc12
targetEntity: OVCAR-3
GI50: 5.35 µM (inactive)
--
molecule: COC1OC(COCc2ccc(Cl)cc2)C(OCc2ccc(Cl)cc2)C1N=[N+]=[N-] (centres undefined)
targetEntity: OVCAR-3
GI50: 47.8 µM (inactive)
--
molecule: C[C@H](CCC(=O)O)[C@H]1CC[C@H]2[C@@H]3[C@H](O)C[C@@H]4C[C@H](O)CC[C@]4(C)[C@H]3C[C@H](O)[C@]12C
targetEntity: OVCAR-3
GI50: > 100 µM (inactive)
--
molecule: CCC1c2[nH]c3ccccc3c2C[C@H]2C(=O)NC(CCCCNC(=O)OC(C)(C)C)C(=O)N12 (some centres undefined)
targetEntity: OVCAR-3
GI50: 18.4 µM (inactive)
--
molecule: CC1=C(C(=O)OC(C)C)C(c2ccccc2[N+](=O)[O-])C(C(=O)OC(CO[N+](=O)[O-])CO[N+](=O)[O-])=C(C)N1 (centres undefined)
targetEntity: OVCAR-3
GI50: 6.49 µM (inactive)
--
molecule: N#CC1(C#N)C(C#N)(C#N)C12CCCCCC2
targetEntity: OVCAR-3
GI50: 16.1 µM (inactive)

----------
# Test system: UACC-257
# testMethodNotes: NCI tumour cell line growth inhibition, 48 h
Active and inactive are the calls of the source. No stated cut-off is given here; in the data, active = GI50 up to about 1.1 µM and inactive = higher.
property: GI50

compound: O=C1/C(=N/c2ccc(Nc3ccccc3)cc2)Oc2ccccc21
property: GI50
assayResult: 2.42 µM (inactive)
--
compound: CC(C)(/C=N\O)NO
property: GI50
assayResult: > 10 µM (inactive)
--
compound: O=c1c2cc(I)ccc2nc(-c2cccs2)n1/N=C/c1ccccc1
property: GI50
assayResult: 79.1 µM (inactive)
--
compound: O=C(CC(=O)C1=CNc2ccccc2S1)C(=O)Nc1ccc(Cl)cc1
property: GI50
assayResult: > 50 µM (inactive)
--
compound: COc1ccc(CCn2cnc3ccccc32)cc1
property: GI50
assayResult: > 100 µM (inactive)
--
compound: O=C1NC(c2ccccc2)C1N(Cc1ccccc1)Cc1ccccc1 (stereo not drawn)
property: GI50
assayResult: > 100 µM (inactive)
--
compound: CN=[S+]([O-])(c1ccccc1)c1ccccc1
property: GI50
assayResult: > 100 µM (inactive)
--
compound: CN(C)c1ccc(/C=C/C(=O)C(C)(C)C)cc1Br
property: GI50
assayResult: 24 µM (inactive)

----------
# System: SF-539
# testMethodNotes: NCI tumour cell line growth inhibition, 48 h
Active and inactive are the calls of the source. Cut-off read from the data, not from the text of the source: active = GI50 up to about 1.1 µM and inactive = higher.
Classes used: active, inactive

compound: O=C(CC(=O)C1=CNc2ccccc2S1)C(=O)Nc1ccc(Cl)cc1
classLabel: inactive
//
compound: Cc1ccc(/N=N/N(C)C(=O)C(C)N)cc1 (stereo unspecified)
classLabel: inactive
//
compound: COCCOCOC(CCCCO)c1cc(C)c(O[Si](C)(C)C(C)(C)C)c(C)c1 (stereo unspecified)
classLabel: inactive
//
compound: CC(C)c1cccc(C(C)C)c1NC(=O)C(=O)C1CCC2=C(Sc3ccccc3N2)C1=O (stereo unspecified)
classLabel: inactive
//
compound: S=C1Cc2cc3ccccc3nc2-c2ccccc2N1
classLabel: inactive
//
compound: CC(C)(C)OC(=O)N1CCC23CCCC2C(=O)CC=C13 (stereo unspecified)
classLabel: inactive
//
compound: Cc1cc(N(CCC#N)CCC#N)ccc1/C=C1N=C(/C=C/c2ccccc2)N(c2ccc(S(N)(=O)=O)cc2)C\1=O
classLabel: inactive
//
compound: CC1=CCC2(C#N)CCC1C2O (stereo unspecified)
classLabel: inactive
//
compound: C#CCCCC(=C)C[C@H](OCc1ccccc1)[C@H]1OC(=O)[C@@H]1C
classLabel: inactive
//
compound: Oc1cc(-c2ccccn2)nc2cccc(F)c12
classLabel: inactive
//
compound: CN(Cc1cnc2nc(N)nc(N)c2n1)c1ccc(C(=O)NC(CCC(=O)O)C(=O)O)cc1 (stereo unspecified)
classLabel: active
//
compound: CCCCCCCC(=O)OC[C@@H](C[As](=O)(O)O)OC(=O)CCCCCCC
classLabel: inactive
//
compound: C[C@H](CCC(=O)O)[C@H]1CC[C@H]2[C@@H]3[C@H](O)C[C@@H]4C[C@H](O)CC[C@]4(C)[C@H]3C[C@H](O)[C@]12C
classLabel: inactive
//
compound: O=C1c2c(ccc3c2CCCC3)CC1Cc1ccc2c(c1)CCCC2 (stereo unspecified)
classLabel: inactive
//
compound: COC(=O)Nc1nc2ccc(S(=O)(=O)SC)cc2[nH]1
classLabel: inactive
//
compound: C1COC(NC(C2CC2)C2CC2)=N1 [RILMENIDINE]
classLabel: inactive
//
compound: CN(C)CCNC(=O)c1cccc2cc3c(Cl)cccc3nc12
classLabel: active
//
compound: CCCSCC(P(=O)(O)O)P(=O)(O)O.NC1CCCCC1
classLabel: inactive
//
compound: CC(C)[C@@H](C)CC[C@@H](C)C1CC=C2[C@@H]3CCC4C[C@@H](O[Si](C)(C)C(C)(C)C)CC[C@]4(C)C3CC[C@@]21C (stereo partly specified)
classLabel: inactive
//
compound: O=C1CSC(c2ccccc2O)N1c1ccc2c(c1)Oc1c(Cl)c3c(c(Cl)c1=N2)Oc1cc(N2C(=O)CSC2c2ccccc2O)ccc1N=3 (stereo unspecified)
classLabel: inactive
//
compound: COc1cc(C)c2c(c1C=O)Oc1c(c(C)c(O)c3c1C(O)OC3=O)OC2=O (stereo unspecified) [STICTIC ACID]
classLabel: inactive
//
compound: CN(c1ccccc1)c1c(Cl)c(=O)oc2c1ccc1occc12
classLabel: inactive
//
compound: CN1CC=C(c2c(N)nc(N)[nH]c2=O)CC1
classLabel: inactive
//
compound: CO/C=C(/C(=O)OC)[C@@H]1C[C@@H]1c1ccc2ccccc2c1
classLabel: inactive
//
compound: O=C1C(OC(=O)c2ccccc2)=C(c2ccc(O)cc2)C(=O)C(OC(=O)c2ccccc2)=C1c1ccc(O)cc1
classLabel: inactive
//
compound: Cc1cn(C2CC(N)C(CN)O2)c(=O)[nH]c1=O (stereo unspecified)
classLabel: inactive
//
compound: CCC1CN2CCc3c([nH]c4ccccc34)C2C[C@@H]1CC(=O)N(C)C (stereo partly specified)
classLabel: inactive
//
compound: O=C(Nc1nc2ncn(CCOC(=O)c3ccccc3)c2c(=S)[nH]1)c1ccccc1
classLabel: inactive
//
compound: Cc1cc(=O)oc2cc(OC(=O)Nc3ccccc3)ccc12
classLabel: inactive
//
compound: CC1=C(C(=O)Nc2cccc(Cl)c2)C(c2ccccc2F)C(C(=O)Nc2cccc(Cl)c2)=C(C)N1
classLabel: inactive
//
compound: O=c1o[nH]/c(=N/c2ccccc2)n1-c1ccccc1
classLabel: inactive
//
compound: NC1=NN(c2ccccc2)C(=O)C1C(=O)C(=O)Nc1ccc(Cl)cc1 (stereo unspecified)
classLabel: inactive
//
compound: CC1(C)CC(=O)C2=C(C1)c1c(ccc3ccccc13)NC2c1cn(Cc2ccc(Cl)cc2)c2ccccc12 (stereo unspecified)
classLabel: inactive
//
compound: CSCC[C@@H]1C(=O)N(C)[C@H](C(C)(C)C)N1C(=O)c1ccccc1
classLabel: inactive
//
compound: O=C1CSC(c2c[nH]c3ccccc23)N1c1ccc(Cl)cc1 (stereo unspecified)
classLabel: inactive
//
compound: Cc1ccc(C(=O)CCl)o1
classLabel: inactive
//
compound: O=c1c2ccccc2nnn1-c1n[nH]c2ccccc12
classLabel: inactive
//
compound: COc1ccc(C2=NN(C(=O)c3cccnc3)C(O)(c3cc(F)c(Cl)cc3Cl)C2)cc1OC (stereo unspecified)
classLabel: inactive
//
compound: CC1(C)C(C(=O)OC(C#N)c2cccc(OCC(=O)OCc3ccccc3)c2)C1(C)C (stereo unspecified)
classLabel: inactive
//
compound: CC(C)=CCC(O)C1=CC(=O)c2c(O)ccc(O)c2C1=O (stereo unspecified)
classLabel: inactive
//
compound: Cc1ccc(/N=N/c2c(C)nn(-c3ccccc3)c2C)c(Br)c1
classLabel: inactive
